Catalogue of TGI readings, one per entry.
# Test system: NCI-H23 lung
# experiment: NCI tumour cell line growth inhibition, 48 h
property_name: TGI

[[record]]
molecule = "O=C(Nc1ccccc1I(=O)=O)C1CCCCC1"
test_value = "> 100 µM"

[[record]]
molecule = "O=c1c2nc(-c3ccccc3)oc2n(-c2ccccc2)c(=O)n1-c1ccccc1"
test_value = "> 46.4 µM"

[[record]]
molecule = "O=C(NCCCc1cn[nH]c1)c1ccc(-c2ccncc2)c(C#Cc2ccc(F)cc2)c1"
test_value = "> 100 µM"

[[record]]
molecule = "COc1cc2nc(-c3cccs3)nc(Nc3cccc(Cl)c3)c2cc1OC"
test_value = "> 100 µM"

[[record]]
molecule = "CN=C1C=CC(=C(c2ccc(N(C)C)cc2)c2ccc(N(C)C)cc2)C=C1"
test_value = "1.02 µM"

[[record]]
molecule = "CCOc1cc2c(cc1O)C(O)C[C@@H]1[C@@H]2CC[C@]2(C)[C@@H](O)CC[C@@H]12 (some centres undefined)"
test_value = "> 24.7 µM"

[[record]]
molecule = "N#Cc1ccccc1NC(=O)C(=O)C1NC(=S)NC1=O (centres undefined)"
test_value = "> 100 µM"

[[record]]
molecule = "COc1ccc(Oc2ccccc2N)cc1"
test_value = "> 100 µM"

[[record]]
molecule = "Cc1cccc(C(=O)O)c1C(=O)c1cccc2ccccc12"
test_value = "> 100 µM"

[[record]]
molecule = "CCN(CC)C(=O)Cn1c2c(c3ccccc31)CCCC2"
test_value = "> 100 µM"

[[record]]
molecule = "O=c1[nH]nc(Cc2ccc(Cl)cc2)n1/N=C/c1ccc([N+](=O)[O-])o1"
test_value = "16.8 µM"

[[record]]
molecule = "CC/C(Cc1ccccc1)=C(\\c1ccc(OCCN2CCCC2)cc1)c1ccc(OC(=O)NCc2ccccc2)cc1"
test_value = "13.7 µM"

[[record]]
molecule = "CC(C)N(Cc1ccc(CN(C(=O)CCl)C(C)C)cc1)C(=O)CCl"
test_value = "3.6 µM"

[[record]]
molecule = "CNCCCNc1nc2ccccc2c2c(=O)c3cc(OC)ccc3sc12"
test_value = "3.19 µM"

[[record]]
molecule = "COCCOc1cc(C)cc(/C=C(C)/C=C/C2=C(C)CCCC2(C)C)n1"
test_value = "> 100 µM"

[[record]]
molecule = "COC1CC(O)C(OC(=O)c2ccccc2)C(C)O1 (centres undefined)"
test_value = "> 100 µM"

[[record]]
molecule = "CCCOC(=O)c1c(C)n(C)c2scc[n+]12"
test_value = "> 100 µM"

[[record]]
molecule = "O=C(N=Nc1ccccc1Cl)NNc1ccccc1Cl"
test_value = "> 100 µM"

[[record]]
molecule = "O=C(O)c1ccccc1C1c2ccccc2Oc2ccccc21"
test_value = "> 100 µM"

[[record]]
molecule = "COc1ccc(C)cc(=O)c1O"
test_value = "> 100 µM"

[[record]]
molecule = "Nc1c(S(=O)(=O)O)cc(S(=O)(=O)O)c2ccc(N=Nc3ccc(/C=C/c4ccc(N=Nc5ccc6c(S(=O)(=O)O)cc(S(=O)(=O)O)c(N)c6c5O)cc4S(=O)(=O)O)c(S(=O)(=O)O)c3)c(O)c12"
test_value = "> 100 µM"

[[record]]
molecule = "CCOC(=O)C1=C(O)c2ccc(C)cc2C(=O)C1=O"
test_value = "98.8 µM"

[[record]]
molecule = "CCN(CC)C(=O)CCN1CC1"
test_value = "> 10 µM"

[[record]]
molecule = "CCCCC#Cc1c(I)n(C)c(=O)[nH]c1=O"
test_value = "4.43 µM"

[[record]]
molecule = "COc1ccc2oc3c(OC)c(OC)c(OC)cc3c(=O)c2c1"
test_value = "> 100 µM"

[[record]]
molecule = "CCOC(=O)Nc1ccc(S(=O)(=O)Nn2cnnc2)cc1"
test_value = "> 100 µM"

[[record]]
molecule = "CS(=O)(=O)OCCCNCCCOS(C)(=O)=O"
test_value = "5630 µM"

[[record]]
molecule = "C#Cc1cccc(Nc2nc(Cl)nc3cc(NC(=O)CCl)ccc23)c1"
test_value = "3.77 µM"

[[record]]
molecule = "O=C1C2C=CC(n3[nH]c(=O)n(Cc4ccccc4)c3=O)CC2C(=O)N1c1ccc(Br)cc1 (centres undefined)"
test_value = "> 100 µM"

[[record]]
molecule = "c1ccc(OCCC[P+](c2ccccc2)(c2ccccc2)c2ccccc2)cc1"
test_value = "10.9 µM"

[[record]]
molecule = "CC1OC(=O)C(O)=C1O (centres undefined)"
test_value = "> 100 µM"

[[record]]
molecule = "CCOC(=O)c1cc(Br)c(-c2onc(C)c2Br)[nH]1"
test_value = "> 100 µM"

[[record]]
molecule = "CCN(CC)CCCC(C)Nc1cc(-c2cccc(OC(F)(F)F)c2)nc2ccc(N3CCCC3)cc12 (centres undefined)"
test_value = "> 64 µM"

[[record]]
molecule = "COC(=O)Nc1nc2ccccc2[nH]1"
test_value = "> 56.2 µM"

[[record]]
molecule = "CCCc1cc(=O)n2c(C(=O)Nc3ccc(F)cc3)c(C(=O)Nc3ccc(F)cc3)sc2n1"
test_value = "> 160 µM"

[[record]]
molecule = "CCOC(=O)c1cc(-c2ccc(-c3cc(C(=O)OCC)c(C#N)c(N)c3C#N)cc2)c(C#N)c(N)c1C#N"
test_value = "> 100 µM"

[[record]]
molecule = "CCNc1cc2c3c(c1)CCN3CCC2"
test_value = "> 10 µM"

[[record]]
molecule = "Cc1c(C#N)cccc1[C@@H](C)Nc1nnc(C)c2cnc(N3CCOCC3)cc12"
test_value = "> 100 µM"

[[record]]
molecule = "CSc1nc2nc3c(nc2c(=O)n1C)C(=O)c1ccccc1C3=O"
test_value = "0.422 µM"

